- assayText: Tanguay_ZF_120hpf_CIRC_legacy: (Legacy) Oregon State University Tanguay Lab 120 Hour Post-fertilization zebrafish Assay for Circulatory Malformation (AID 2283651)
Inconclusive results are not listed. Active and inactive are the calls of the source. How the source made its calls: active means hit-call score of the fitted dose curve at least 0.9, where 1 is the maximum; inconclusive means response in the unintended direction; inactive means score below 0.9.
readout: outcome

Nc1c(Cl)c(Cl)nc(C(=O)O)c1Cl; inactive
COc1cc(OC)nc(NC(=O)NS(=O)(=O)c2ncccc2OCC(F)(F)F)n1; inactive
CSC(=O)c1c(C(F)F)nc(C(F)(F)F)c(C(=O)SC)c1CC(C)C; inactive
COP(=S)(OC)Oc1ccc([N+](=O)[O-])c(C)c1; inactive
COP(=S)(OC)SCn1nnc2ccccc2c1=O; inactive
O=C1C2CC=CCC2C(=O)N1SC(Cl)(Cl)Cl (stereo not drawn); inactive
CCCN(CC)CC1COC2(CCC(C(C)(C)C)CC2)O1 (stereo not drawn); inactive

As a next step, examine the compound that follows.
Notebook: COc1ccc(-c2ccccc2)cc1NNC(=O)OC(C)C , outcome read as inactive

====

- testedTarget: Nuclear receptor subfamily 1 group I member 2 (Homo sapiens)
- assayText: ATG_PXR_TRANS: Attagene TRANS-FACTORIAL HepG2 Assay for human Pregnane X Receptor (PXR) (AID 2283008)
Results filed as inconclusive are left out. Active and inactive are the calls of the source. Rule for the calls: active = hit-call score of the fitted dose curve at least 0.9, where 1 is the maximum; inconclusive = response in the unintended direction; inactive = score below 0.9.
Write down one outcome, taken from y = active, n = inactive

See these solved cases before continuing.
C=CCOC(=O)C(C)(C)OC(=O)c1cc(-n2c(=O)cc(C(F)(F)F)n(C)c2=O)ccc1Cl; n
CC1(C)C(C=C(Cl)Cl)C1C(=O)OC(C#N)c1cccc(Oc2ccccc2)c1 (stereo not drawn); y
CCOc1nc(F)cc2nc(S(=O)(=O)Nc3c(Cl)cccc3Cl)nn12; n

Which outcome did this test record for the compound Cc1cnc(C2=NC(C)(C(C)C)C(=O)N2)c(C(=O)O)c1 (stereo not drawn) ? y

What is the recorded call for this compound in the test? CCOC(=O)C(C)OC(=O)c1cc(Oc2ccc(C(F)(F)F)cc2Cl)ccc1[N+](=O)[O-] (stereo not drawn) n

# fetch the recorded call for CCCCC(O)(Cn1cncn1)c1ccc(Cl)cc1Cl (stereo not drawn) here n

Which outcome did this test record for the compound COC(=O)N(C(=O)N1CO[C@@]2(C(=O)OC)Cc3cc(Cl)ccc3C2=N1)c1ccc(OC(F)(F)F)cc1 ? y

Could you check what this test reported for CCN(CC)C(=O)C(C)Oc1cccc2ccccc12 (stereo not drawn) ? y

====

- Read-out: glucuronosyltransferase (UGT1A1), UGT1A1 (gene 54658)
- assayText: CLD_UGT1A1_48hr: CellzDirect (CLD) Gene Expression Assay for glucuronosyltransferase (UGT1A1) at 48 hours (AID 2283709);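 further: actives increase expression relative to DMSO so potency refers to induction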
Records with an inconclusive call do not appear. Calls of active or inactive are those of the source. The calls were made as follows: active = hit-call score of the fitted dose curve at least 0.9, where 1 is the maximum; inconclusive = response in the unintended direction; inactive = score below 0.9.
Output constraint: value belongs to class 1 (active), class 0 (inactive)

Here's what some known entries look like.
Nc1c(Cl)c(Cl)nc(C(=O)O)c1Cl; class 0
COCc1cnc(C2=NC(C)(C(C)C)C(=O)N2)c(C(=O)O)c1 (stereo not given); class 0
CCNP(=S)(OC)O/C(C)=C/C(=O)OC(C)C (stereo not given); class 1
N#Cc1c[nH]cc1-c1cccc2c1OC(F)(F)O2; class 0
CCOP(=S)(OCC)Oc1nc(Cl)n(C(C)C)n1; class 1

Entry CSC(=O)c1c(C(F)F)nc(C(F)(F)F)c(C(=O)SC)c1CC(C)C : call = ? class 0

Please state the recorded outcome for this compound: CCOc1nc(C(Cl)(Cl)Cl)ns1 class 0

// outcome(item) with item = COc1ccc(-c2ccccc2)cc1NNC(=O)OC(C)C class 0

What classification did CC1(C)C(C=C(Cl)Cl)C1C(=O)OC(C#N)c1cccc(Oc2ccccc2)c1 (stereo not given) end up with in this test? class 1

Tell me the recorded outcome of this test for CCNC(=O)NC(=O)C(C#N)=NOC . class 0

Test call, this compound: OC(c1ccc(Cl)cc1)(c1ccc(Cl)cc1)C(Cl)(Cl)Cl class 0

Fill in: this test's call for Nc1c(Cl)c(F)nc(OCC(=O)O)c1Cl is ___ class 0
